The reported measurements were obtained from PubChem BioAssay AID1239.

- Measurement Description: activators of NF-kB expression in neurons, primary screen, cell-based, HTS (AID 1239)
- Condition Description: human neuronal cells, NF-kB reporter expression; at 12.5 µM
In all, about 190,000 compounds went through this assay and about 3,100 (1.6%) were called active. Cut-off read from the data, not from the text of the source: active = fold change above about 3.3; inconclusive = no clear call, values can overlap the other calls; inactive = below that. This is one part of a sample in which actives are shown more often than they occur.
Classes used: 1.0 for active, 0.0 for inactive

COc1ccc(/C=C2\CCc3ccccc3C2=O)c(OC)c1OC; 0.0
COc1ccc(NC(=O)c2ccc(OC)cc2)cc1; 1.0
COc1ccc(NC(=O)c2ccc(C#CC(C)(C)O)cc2)cc1; 0.0
COc1ccc(C(=O)Nc2ccc(F)cc2F)cc1; 1.0
COc1ccc(C(=O)NC2CCN(C(=S)NCCc3ccccc3)CC2)cc1; 0.0
COc1ccccc1CNC(=O)c1ccc(SC)cc1OC; 0.0
O=C(Nc1cccn(Cc2ccccc2Cl)c1=O)NC1CCCCC1; 0.0
Cc1cccc(C)c1Nc1nnc(SCC(=O)Nc2sccc2C#N)s1; 0.0
Cc1cc(=O)n2[nH]c(-c3sccc3-n3c(C)ccc3C)cc2n1; 0.0
Cc1ccc(-c2nc3ccccc3[nH]2)cc1N; 1.0
O=C(NCc1ccccc1)C1CCCN(c2nc3ccsc3c(=O)s2)C1 (centres undefined); 0.0
COc1ccc(-c2cc(C)nc3nc(N)nn23)cc1; 0.0
Cn1nc(C(F)(F)F)c2cc(C(=O)N3CCOCC3)sc21; 0.0
c1ccc2[nH]c(-c3nc4ccccc4[nH]3)nc2c1; 0.0
Cc1ccc(-c2nc3ccccc3[nH]2)cc1NC(=O)c1sc2ccccc2c1Cl; 0.0
O=C1/C(=C/c2cccs2)CCC1C1CCCC1 (centres undefined); 1.0
O=C(c1cc(-c2ccccc2O)on1)N1CCCC1; 0.0
N/C(=N\OC(=O)c1ccc2c(c1)OCO2)c1ccc(Br)cc1; 1.0
CCOC(=O)C1(Cc2cccc(OC)c2)CCN(Cc2csc(C(C)=O)c2)CC1; 0.0
COc1ccc(-c2cc(C(=O)NCCCn3ccnc3)no2)cc1; 0.0
CC1(C)C2CC=C(/C=N/NC(=O)C3CC3)C1C2 (centres undefined); 0.0
COc1cc(SC)ccc1C(=O)Nc1cc(C)ccn1; 0.0
O=C(c1ccc(F)cc1)N1CCCC(c2nc(-c3cccs3)no2)C1 (centres undefined); 0.0
COC(=O)C1=CN(Cc2ccc(OC)c(OC)c2)C=C(C(=O)OC)C1c1cccs1; 0.0
CCCC(=O)Nc1ccc(C(=O)NCCCn2ccnc2)cc1; 0.0
CCC(CC)NC(=O)CSc1nnc(-c2c[nH]c3ccccc23)o1; 0.0
COc1ccccc1-c1cc(C(=O)N2CCCCC2)no1; 1.0
O=C1CC(c2ccccc2)=NN1c1ccc([N+](=O)[O-])cc1; 0.0
COc1ccccc1CC(=O)Nc1ccc(F)cc1F; 0.0
COc1ccccc1N1CCN(/N=C\C(Br)=C\c2ccccc2)CC1; 0.0
Cc1cccc(-n2c(C)cc(/C=N\NC(=O)c3cccs3)c2C)c1; 0.0
COc1ccc(/C=N/NC(=O)Nc2ccc3nsnc3c2)c(OC)c1; 0.0
Cc1ncc(CC(=O)n2cc(C(=O)c3cc(Cl)ccc3O)cn2)s1; 0.0
CCCC(=O)Nc1ccc(C(=O)N/N=C/c2ccc[nH]2)cc1; 1.0

---

- Measurement Description: activators of NF-kB expression in neurons, primary screen, cell-based, HTS (AID 1239)
- Condition Description: human neuronal cells, NF-kB reporter expression; at 12.5 µM; hits give high values
The campaign covered roughly 190,000 compounds. About 3,100 (1.6%) were called active. The entries come from a sample that favours actives as a whole.
Parameter: fold change. Scope: all listed entries.
Measured Parameter: fold change

COc1ccc(C2=NN(c3nc4ccccc4s3)C(=O)C2)cc1; 1.02
COC(=O)c1sc2[nH]c(=S)n(N)c(=O)c2c1C; 1.19
CC1CN(CCOc2ccccc2[N+](=O)[O-])CC(C)O1 (stereo unspecified); 1.22
COC(=O)CCNC(=O)c1ccc2[nH]c(C)c(C)c2c1; 0.99
CCN(C(=O)COC(=O)c1ccc(COc2ccc3c(C)cc(=O)oc3c2)cc1)C1CCS(=O)(=O)C1 (stereo unspecified); 1.19
O=C(O)/C=C/c1cn(Cc2ccccc2)nc1-c1cccs1; 1.06
CC1CCN(S(=O)(=O)c2ccc3ncn(CC(=O)N(C)C4CCCCC4)c(=O)c3c2)CC1; 0.79
O=C(NC(=S)Nc1ccc(S(=O)(=O)Nc2ncccn2)cc1)c1cccc(Br)c1; 0.92
Cc1nn(C)c(C)c1S(=O)(=O)N1CCC(CO)(Cc2ccc(Cl)cc2)CC1; 0.97
CCOC(=O)Cn1nnnc1C; 0.94
COc1ccc(N(C)S(=O)(=O)c2cccc3nsnc23)cc1; 1.25
Cc1ccnc(Nc2nc3ccccc3s2)n1; 4.25
CC(C)(C)c1csc(NC2=NS(=O)(=O)c3ccccc32)n1; 3.56
COc1ccc(/C=N/NC(=O)c2cccc(C(F)(F)F)c2)cc1; 0.86
CC(=O)Nc1cccc(-c2cnc3ccccc3n2)c1; 2.74
O=C(CCc1ccccc1)Nc1ccc(NC(=O)C2CCCCC2)nc1; 1.04
O=C(O)c1ccc(N/N=C/c2cn(-c3ccccc3)nc2-c2cccs2)cc1; 6.86
COc1ccc(OC)c(Nc2nc(-c3ccc(O)c(O)c3)cs2)c1; 1.32
CCCC(=O)Nc1cccc(-c2cn3ccsc3n2)c1; 1.3
O=C(/C=C\c1cn(-c2ccccc2)nc1-c1cccs1)N1CCOCC1; 0.42
CCOc1cnc(C(=O)NNC(=O)c2ccccc2Br)o1; 1.13
COC(=O)[C@H](C)[C@H]1C[C@]1(C)[C@H](NC(=O)OCc1ccccc1)c1ccccc1; 0.97
Cc1cc(C)c(OCCN2CC(C)OC(C)C2)c(Br)c1 (stereo unspecified); 1.58
COCCNc1nc2nonc2nc1N1CCCC1c1nccs1 (stereo unspecified); 1.05
O=c1oc2ccccc2cc1-c1csc(Nc2ccc(O)cc2)n1; 7.39
CC(=O)c1ccccc1NC(=O)CC1(CC(=O)O)CCCCC1; 1.2
